Measured pIC50, listed per entry for reference.
Target: MTHFD2 recombinant human enzyme (Homo sapiens)
Sequence (P13995 36-350): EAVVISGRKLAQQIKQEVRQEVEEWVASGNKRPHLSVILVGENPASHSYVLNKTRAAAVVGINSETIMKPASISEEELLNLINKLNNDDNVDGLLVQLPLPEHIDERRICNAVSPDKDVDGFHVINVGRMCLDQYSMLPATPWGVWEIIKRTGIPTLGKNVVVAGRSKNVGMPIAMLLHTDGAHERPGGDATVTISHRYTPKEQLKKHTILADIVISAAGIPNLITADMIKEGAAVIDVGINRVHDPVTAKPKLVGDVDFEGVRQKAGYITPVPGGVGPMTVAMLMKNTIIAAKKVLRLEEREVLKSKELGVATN
Test: MTHFD2 inhibition assay (NAD(P)H-Glo luminescence)
pIC50: −log10 of the molar value.

COMPOUND: CCOc1cc(C(=O)N2CCc3c(c(=O)oc4c(C)c(N5CCN(C)[C@@H](COC)C5)cc(C)c34)C2)c(F)cc1C(=O)NS(=O)(=O)N1CC[C@@H](F)C1 [Example 261]
RESULT: 8.00 to 9.00
//
COMPOUND: COC[C@H]1CN(c2cc(F)c3c4c(c(=O)oc3c2C)CN(C(=O)c2cc(OC)c(C(=O)NS(=O)(=O)N3C5CCC3CC5)cc2F)CC4)CCN1C [Example 305]
RESULT: 7.00 to 8.00
//
COMPOUND: COC[C@H]1CN(c2cc(C)c3c4c(c(=O)oc3c2C)CN(C(=O)c2ccc(C(=O)NS(=O)(=O)N3CCCC3)c(Cl)c2F)CC4)CCN1C [Example 178]
RESULT: 7.00 to 8.00
//
COMPOUND: COC[C@H]1CN(c2cc(C)c3c4c(c(=O)oc3c2C)CN(C(=O)c2cc(OC3CCCC3)c(C(=O)NS(=O)(=O)C3(C)CC3)c(C(F)(F)F)c2)CC4)CCN1C [Example 128]
RESULT: 7.00 to 8.00

Input line: I have this compound here, COC[C@H]1CN(c2cc(C)c3c4c(c(=O)oc3c2C)CN(C(=O)c2ccc(C(=O)NS(=O)(=O)N3C5CCC3CC5)cc2Cl)CC4)CCN1C [Example 185] , and I need its recorded pIC50.
Output line: 6.00 to 7.00

Input line: Check COC[C@H]1CN(c2cc(C)c3c4c(c(=O)oc3c2C)CN(C(=O)c2cc(OC)c(C(=O)NS(=O)(=O)N3CC5CC5C3)cc2F)CC4)CCN1C (some centres unmarked) [Example 249] too.
Output line: 8.00 to 9.00

Input line: Please do the same for COC[C@H]1CN(c2ccc3c4c(c(=O)oc3c2C)CN(C(=O)c2cc(N(C)C)c(C(=O)NS(=O)(=O)N3C5CCC3CC5)cc2F)CC4)CCN1C [Example 188] as well.
Output line: 7.00 to 8.00

Input line: And the next one, COC[C@H]1CN(c2cc(C)c3c4c(c(=O)oc3c2C)CN(C(=O)c2ccc(C(=O)NS(=O)(=O)C3(C)CC3)c(N3C5CCC3CC5)c2F)CC4)CCN1C [Example 73] ?
Output line: 8.00 to 9.00

Input line: Try COC[C@H]1CN(c2cc(C)c3c4c(c(=O)oc3c2C)CN(C(=O)c2ccc(C(=O)NS(=O)(=O)N(C)C3CCCC3)cc2F)CC4)CCN1C [Example 199] next.
Output line: 6.00 to 7.00

Input line: Quick one: COC[C@H]1CN(c2ccc3c4c(c(=O)oc3c2C)CN(C(=O)c2ccc(C(=O)NS(=O)(=O)C3(C)CC3)c(OC3CCC3)c2F)CC4)CCN1C [Example 42]
Output line: 8.00 to 9.00

Input line: // repeat for CCOc1c(C(=O)NS(=O)(=O)N2C3CCC2CC3)ccc(C(=O)N2CCc3c(c(=O)oc4c(C)c(N5CCN(C)[C@@H](COC)C5)cc(C)c34)C2)c1F [Example 228] and report
Output line: 7.00 to 8.00

Input line: Now consider COC[C@H]1CN(c2ccc3c4c(c(=O)oc3c2C)CN(C(=O)c2ccc(C(=O)NS(=O)(=O)C3(C)CC3)c(N(C)C)c2F)CC4)CCN1C [Example 137] and answer again.
Output line: 7.00 to 8.00

Input line: Follow-up item: CCOc1c(C(=O)NS(=O)(=O)N2CCCCC2)ccc(C(=O)N2CCc3c(c(=O)oc4c(C)c(N5CCN(C)[C@@H](COC)C5)ccc34)C2)c1F [Example 198]
Output line: 6.00 to 7.00

Input line: Okay, and CCCOc1c(C(=O)NS(=O)(=O)N2CCCC2)ccc(C(=O)N2CCc3c(c(=O)oc4c(C)c(N5CCN(C)[C@@H](COC)C5)cc(C)c34)C2)c1F [Example 205] ?
Output line: 7.00 to 8.00

Input line: Now consider CNc1cc(C(=O)N2CCc3c(c(=O)oc4c(C)c(N5CCN(C)[C@@H](COC)C5)cc(C)c34)C2)c(F)cc1C(=O)NS(=O)(=O)N1CCCC1 [Example 201] and answer again.
Output line: 7.00 to 8.00

Input line: Can you handle COC[C@@H]1CN(c2cc(C)c3c4c(c(=O)oc3c2C)CN(C(=O)c2ccc(C(=O)NS(=O)(=O)N3CCCC3)c(OC3CCC3)c2F)CC4)CCN1C [Example 174] next?
Output line: 7.00 to 8.00

Input line: // repeat for COC[C@H]1CN(c2cc(C)c3c4c(c(=O)oc3c2C)CN(C(=O)c2ccc(C(=O)NS(=O)(=O)N(C)C3CCCC3)c(OC)c2F)CC4)CCN1C [Example 238] and report
Output line: 7.00 to 8.00

Input line: And for COC[C@H]1CN(c2cc(C)c3c4c(c(=O)oc3c2C)CN(C(=O)c2cc(N)c(C(=O)NS(=O)(=O)N3CCCC3)cc2F)CC4)CCN1C [Example 196] ?
Output line: 7.00 to 8.00

Input line: Entry to check: COC[C@H]1CN(c2cc(C)c3c4c(c(=O)oc3c2C)CN(C(=O)c2ccc(C(=O)NS(=O)(=O)N3CCCC3)c(OC)c2F)CC4)CCN1C [Example 135]
Output line: 8.00 to 9.00

* * *

Quick list: pIC50 per entry.
Biological target: MTHFD1 recombinant human enzyme (Homo sapiens, UniProt P11586)
Sequence (P11586 2-291 limits assumed): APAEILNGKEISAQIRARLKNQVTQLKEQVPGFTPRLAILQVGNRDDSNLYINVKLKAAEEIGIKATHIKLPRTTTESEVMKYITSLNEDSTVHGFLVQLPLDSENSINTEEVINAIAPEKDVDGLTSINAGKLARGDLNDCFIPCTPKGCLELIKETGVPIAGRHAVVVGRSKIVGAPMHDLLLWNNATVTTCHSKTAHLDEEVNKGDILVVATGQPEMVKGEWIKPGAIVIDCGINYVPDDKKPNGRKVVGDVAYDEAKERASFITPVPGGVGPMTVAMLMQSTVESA
Assay: MTHFD1 inhibition assay (NAD(P)H-Glo luminescence)
Settings: MTHFD1 IC50, recombinant human enzyme 200 nM, NADP, band
pIC50: −log10 of the molar value.

SMILES_REPRESENTATION: COC[C@H]1CN(c2cc(Cl)c3c4c(c(=O)oc3c2C)CN(C(=O)c2cc(N(C)C)c(C(=O)NS(=O)(=O)N3CCC5(CC5)C3)cc2F)CC4)CCN1C
RESULT: 6.00 to 7.00
--
SMILES_REPRESENTATION: CCOc1cc(C(=O)N2CCc3c(c(=O)oc4c(C)c(N5CCN(C)[C@@H](COC)C5)cc(C)c34)C2)c(F)cc1C(=O)NS(=O)(=O)N(C)C1CC1
RESULT: 7.00 to 8.00

Input line: What value of pIC50 has been recorded for this entry: COC[C@H]1CN(c2cc(Cl)c3c4c(c(=O)oc3c2C)CN(C(=O)c2cc(N(C)C)c(C(=O)NS(=O)(=O)N3CC5(COC5)C3)cc2F)CC4)CCN1C
Output line: 6.00 to 7.00

Input line: Lookup COC[C@H]1CN(c2cc(C)c3c4c(c(=O)oc3c2C)CN(C(=O)c2ccc(C(=O)NS(=O)(=O)C3(C)CC3)c(OC3CCC3)c2C)CC4)CCN1C
Output line: 6.00 to 7.00

Input line: Next compound: COC[C@H]1CN(c2ccc3c4c(c(=O)oc3c2C)CN(C(=O)c2ccc(C(=O)NS(=O)(=O)N(C)C)c(OC3CCCC3)c2F)CC4)CCN1C
Output line: 8.00 to 9.00

Input line: And the next one, CCOc1cc(C(=O)N2CCc3c(c(=O)oc4c(C)c(N5CCN(C)[C@@H](COC)C5)cc(C)c34)C2)c(F)cc1C(=O)NS(=O)(=O)N1C2CCC1CC2 ?
Output line: 6.00 to 7.00

* * *

IC50: recorded values
Biological target: human α4β2 neuronal nicotinic receptor (Homo sapiens, UniProt P17787+P43681)
Construct: host or cells: SH-SY5Y cells (membrane homogenates)
Sequence (P43681 29-627 limits assumed): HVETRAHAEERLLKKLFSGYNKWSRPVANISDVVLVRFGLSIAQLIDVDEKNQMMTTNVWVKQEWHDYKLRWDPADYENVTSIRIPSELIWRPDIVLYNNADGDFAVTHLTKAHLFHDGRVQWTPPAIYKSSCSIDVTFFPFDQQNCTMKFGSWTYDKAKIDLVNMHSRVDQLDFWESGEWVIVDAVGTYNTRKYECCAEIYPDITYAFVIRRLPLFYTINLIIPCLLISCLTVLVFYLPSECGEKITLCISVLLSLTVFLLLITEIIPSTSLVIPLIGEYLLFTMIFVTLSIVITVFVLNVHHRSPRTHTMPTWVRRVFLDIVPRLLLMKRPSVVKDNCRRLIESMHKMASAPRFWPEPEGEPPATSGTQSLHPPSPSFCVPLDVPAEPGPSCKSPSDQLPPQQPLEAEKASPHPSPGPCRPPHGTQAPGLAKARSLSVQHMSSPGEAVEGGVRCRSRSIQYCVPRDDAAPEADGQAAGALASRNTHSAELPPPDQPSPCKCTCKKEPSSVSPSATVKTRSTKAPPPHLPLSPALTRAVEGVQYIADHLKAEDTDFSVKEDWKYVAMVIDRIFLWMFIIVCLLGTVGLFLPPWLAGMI
Sequence (P17787 26-502): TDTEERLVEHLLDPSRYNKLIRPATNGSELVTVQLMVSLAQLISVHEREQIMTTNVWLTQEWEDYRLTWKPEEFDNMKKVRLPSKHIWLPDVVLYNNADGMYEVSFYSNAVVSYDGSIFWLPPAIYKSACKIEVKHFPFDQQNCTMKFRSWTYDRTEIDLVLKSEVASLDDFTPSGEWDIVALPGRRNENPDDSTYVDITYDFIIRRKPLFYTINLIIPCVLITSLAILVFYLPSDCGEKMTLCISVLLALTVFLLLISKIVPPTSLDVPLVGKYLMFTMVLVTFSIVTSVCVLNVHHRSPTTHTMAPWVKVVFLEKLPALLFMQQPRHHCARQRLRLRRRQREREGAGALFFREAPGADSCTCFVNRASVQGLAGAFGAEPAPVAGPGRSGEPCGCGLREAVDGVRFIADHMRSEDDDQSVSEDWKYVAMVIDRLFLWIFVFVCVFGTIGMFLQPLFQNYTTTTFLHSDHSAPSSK
Assay: α4β2 neuronal nicotinic receptor assay (agonist radioligand, [3H]cytisine)
Assay type: binding
Details: transfected SH-SY5Y cell membranes, 0.6 nM [3H]cytisine, band

Solved entries:
MOLECULE: COC[C@@H]1CN(c2cc(C)c3c4c(c(=O)oc3c2C)CN(C(=O)c2ccc(C(=O)NS(=O)(=O)N3CCCC3)c(OC3CCC3)c2F)CC4)CCN1C [Example 174]
PROPERTY_NAME: IC50
RESULT: 20 to 100 µM
//
MOLECULE: COC[C@H]1CN(c2cc(C)c3c4c(c(=O)oc3c2C)CN(C(=O)c2cc(N(C)C)c(C(=O)NS(=O)(=O)C3(C)CC3)cc2F)CC4)CCN1C [Example 145]
PROPERTY_NAME: IC50
RESULT: > 100 µM
//
MOLECULE: COC[C@H]1CN(c2cc(C)c3c4c(c(=O)oc3c2C)CN(C(=O)c2ccc(C(=O)NS(=O)(=O)N(C)C(C)C)c(OC3CCC3)c2F)CC4)CCN1C [Example 25]
PROPERTY_NAME: IC50
RESULT: 20 to 100 µM

Input line: Can you look up IC50 on human α4β2 neuronal nicotinic receptor (Homo sapiens, UniProt P17787+P43681) for COC[C@H]1CN(c2cc(C)c3c4c(c(=O)oc3c2C)CN(C(=O)c2ccc(C(=O)NS(=O)(=O)C3(C)CC3)c(N3CCCC3)c2)CC4)CCN1C [Example 45] ?
Output line: 20 to 100 µM

Input line: Then what about the molecule COC[C@H]1CN(c2cc(C)c3c4c(c(=O)oc3c2C)CN(C(=O)c2ccc(C(=O)NS(=O)(=O)N3CCCC3)c(OC3CCCC3)c2F)CC4)CCN1C [Example 4] ?
Output line: 20 to 100 µM

Input line: Param item: COC[C@H]1CN(c2cc(C)c3c4c(c(=O)oc3c2C)CN(C(=O)c2ccc(C(=O)NS(=O)(=O)N3CCCC3)c(OC3CCC3)c2)CC4)CCN1C [Example 1]
Output line: 2 to 20 µM
